Cited source for all entries: patent US5665386A

tested on: rat cytochrome P450 3A; conditions: Table 2; 0.001 wt. % component
Measurement type: % inhibition of cyclosporine metabolism (%)
Return type: number; implicit unit %.

// % inhibition of cyclosporine metabolism lookup, compound = CC1(C)[C@H]2CC[C@](C)(C2)[C@H]1O [Fenchol-(1R)-endo-(+)] , result: 74

Briefly, % inhibition of cyclosporine metabolism measured for COc1cc(CNC(=O)CCCC/C=C/C(C)C)ccc1O [Capsaicin, trans-8-Methyl-N-vanillyl-6 nonenamide] : 68

// % inhibition of cyclosporine metabolism value for CCOC(=O)/C=C/c1ccccc1 [Ethyl Cinnamate, trans-, Ethyl 3-phenylpropenoic acid] : -16

Then there is this compound:
// C=CC(C)(CCC=C(C)C)OC(C)=O (stereo not shown) [Linalyl Acetate, 3,7-Dimethyl-1,6-octadien-3-yl acetate] : % inhibition of cyclosporine metabolism value = 55.8

----------
tested on: rat cytochrome P450 3A; details: Table 2; 0.001 wt. % component
This section presents compounds with their documented % inhibition of cyclosporine metabolism values.
Enter your answer as a number in %; do not include the unit.

Entry CC/C=C\CC1=C(C)CCC1=O [Jasmone, cis-] ; % inhibition of cyclosporine metabolism = 68

Form: compound = C=CC(C)(O)CCC=C(C)C (racemic) [Linalool-(±), 3,7-Dimethyl-1,6-octadien-3-ol] ; % inhibition of cyclosporine metabolism = 72.0

Notebook: C=C(C)[C@H]1CC=C(C)C(=O)C1 [Carvone-(S)-(+), p-Mentha-6,8-dien-2-one] , % inhibition of cyclosporine metabolism read as 70.5

----------
system: rat cytochrome P450 3A; conditions: Table 2; 0.0001 wt. % component
Measurement type: % inhibition of cyclosporine metabolism (%)
Expressed in %, but write only the number.

As a guide, the following entries are already answered.
% inhibition of cyclosporine metabolism reported for this molecule CC/C=C\CC1=C(C)CCC1=O [Jasmone, cis-] : 16.0

Reported % inhibition of cyclosporine metabolism of C=C(C)[C@H]1CC=C(C)C(=O)C1 [Carvone-(S)-(+), p-Mentha-6,8-dien-2-one] : 30

Reported % inhibition of cyclosporine metabolism of C=C1CC/C=C(\C)CC[C@@H]2[C@@H]1CC2(C)C [Caryophyllene, trans-(-), β Caryophyllene] : 26

get_value(item= CCOC(=O)/C=C/c1ccccc1 [Ethyl Cinnamate, trans-, Ethyl 3-phenylpropenoic acid] , readout=% inhibition of cyclosporine metabolism) returns -13

Memo: CC(C)=CCC/C(C)=C/CC/C(C)=C/CO [Farnesol, trans-, trans-, 3,7,11-Trimethyl-2,6,10-dodecatrien-1-ol] , reported % inhibition of cyclosporine metabolism: 49

As a next step, examine the molecule that follows.
Reported % inhibition of cyclosporine metabolism for O=C(/C=C/c1ccccc1)OCc1ccccc1 [Benzyl Cinnamate, Benzyl 3-phenylpropenoic acid] was 7

----------
test system: rat cytochrome P450 3A; conditions: Table 2; 0.01 wt. % component
Reported % inhibition of cyclosporine metabolism values for the following compounds.
API: value field is a number in %; no unit string.

Below are worked cases with known answers.
What the record says about C=C(C)[C@H]1CC=C(C)CC1 [Limonene-(R)-(+), p-Mentha-1,8-diene] : % inhibition of cyclosporine metabolism is 84

Lab note: CC1=CCC(O)(C(C)C)CC1 (stereo not shown) [Terpinen-4-ol, p-Menth-1-en-4-ol] gave % inhibition of cyclosporine metabolism of 100

In plain terms, C=CC(C)(CCC=C(C)C)OC(C)=O (stereo not shown) [Linalyl Acetate, 3,7-Dimethyl-1,6-octadien-3-yl acetate] has a documented % inhibition of cyclosporine metabolism of 100

The compound CC(=O)OC/C=C(\C)CCC=C(C)C [Geranyl Acetate] showed % inhibition of cyclosporine metabolism equal to 73

Consider CCOc1cc(C=O)ccc1O [Ethyl Vanillin, 3-Ethoxy-4-hydroxybenzalehyde] . Its measured % inhibition of cyclosporine metabolism is 58

Next:
The recorded % inhibition of cyclosporine metabolism for entry CC(C)=CCCC(C)CCO (stereo not drawn) [Citronellol-(DL)-(β), 3,7-Dimethyl-6-octen-1-ol] equals 95

Noted for Cc1ccc(C(C)C)cc1O [Carvacrol, 5-isoProply-2-methylphenol] : its % inhibition of cyclosporine metabolism reads 97

The recorded % inhibition of cyclosporine metabolism for entry C=C1CC[C@H]2C[C@@H]1C2(C)C [Pinene-(1S)-(-)-β] equals 88

Lookup result for CC1(C)[C@H]2CC[C@](C)(C2)[C@H]1O [Fenchol-(1R)-endo-(+)] ; measured % inhibition of cyclosporine metabolism: 100

Reported % inhibition of cyclosporine metabolism of O=C/C=C/c1ccccc1 [Cinnamic Aldehyde, trans-, 3-Phenylpropenaldehyde] : 78
